# Test system: LOX IMVI melanoma
# protocol_details: NCI-60 one-dose screen, 48 h (100 = growth as untreated, 0 = no growth, -100 = all killed)
# cond: 10 µM unless noted
The panel holds about 83,000 compounds, 20% with a hit somewhere; the sample as a whole holds those more often.
Rule: T for growth not less than 50%, F for anything less.

>  <compound>
COc1ccc(-c2ccc(O)c(C(=O)/C=C/c3cc(OC)c(OC)c(OC)c3)c2)cc1

>  <cat>
T

$$$$
>  <compound>
O=C(CC1Sc2ccccc2NC1=O)NNc1cccc(Cl)c1Cl (stereo not given)

>  <cat>
T

$$$$
>  <compound>
COc1ccc(NC(=O)c2ccccc2-c2ccccc2)c(C(N)=O)c1

>  <cat>
F

$$$$
>  <compound>
O=C(c1ccccc1)C(CN1CCCCC1)c1ccccc1 (stereo not given)

>  <cat>
F

$$$$
>  <compound>
NS(=O)(=O)c1ccc(N2CC(c3nc4ccccc4[nH]3)CC2=O)cc1 (stereo not given)

>  <cat>
T

$$$$
>  <compound>
COc1ccc(C(=O)/C=C/c2cccc(Nc3ccnc4cc(Cl)ccc34)c2)cc1

>  <cat>
F

$$$$
>  <compound>
NS(=O)(=O)c1ccc(-n2ncc3c(SCc4ccccc4)ncnc32)cc1

>  <cat>
T

$$$$
>  <compound>
COc1cnc2c(c1)C(=O)c1c-2n(CCCN2CCNCC2)c(=O)c2cc(F)ccc12

>  <cat>
F

$$$$
>  <compound>
Nc1ccc2c(c1)Cc1cc(Cl)c(Cl)cc1-2

>  <cat>
T

$$$$

Data origin, for the record: PubChem BioAssay (NCI)
